The measured values listed here are drawn from PubChem BioAssay (NCI).

test system: HCT-15 colon; experiment: NCI tumour cell line growth inhibition, 48 h
MEASURED_PARAMETER: TGI

{"COMPOUND": "OC(c1cc(C(F)(F)F)nc2c(Cl)cc(Cl)cc12)C1CCCCN1 (stereo not given)", "TARGET_OF_ASSAY": "HCT-15 colon", "RECORDED_VALUE": "27.4 µM"}
{"COMPOUND": "N=C1C=CC(=C(c2ccc(N)cc2)c2ccc(N)cc2)C=C1", "TARGET_OF_ASSAY": "HCT-15 colon", "RECORDED_VALUE": "53.3 µM"}
{"COMPOUND": "CCN1CCN(c2ccc(NC(=O)Nc3nc4ccc(-c5ccccc5OC)cc4s3)cc2)CC1", "TARGET_OF_ASSAY": "HCT-15 colon", "RECORDED_VALUE": "2.47 µM"}
{"COMPOUND": "N=c1ncn(C/C=C/c2ccccc2)c2nc[nH]c12", "TARGET_OF_ASSAY": "HCT-15 colon", "RECORDED_VALUE": "> 100 µM"}
{"COMPOUND": "C[C@]12CCC(=O)C=C1C[C@@H](O)[C@@H]1[C@@H]2CC[C@@]2(C)[C@H]1CC[C@]2(C)O", "TARGET_OF_ASSAY": "HCT-15 colon", "RECORDED_VALUE": "> 100 µM"}
